These entries and their values trace back to patent US20200002414A1.

target: T1, human Ror2 (human, UniProt Q01974 34-403, limits assumed); assay: ELISA, human Ror2, pH 6.0
T1 construct: also called hROR2; receptor tyrosine kinase-like orphan receptor 2
T1 sequence (Q01974 34-403 limits assumed): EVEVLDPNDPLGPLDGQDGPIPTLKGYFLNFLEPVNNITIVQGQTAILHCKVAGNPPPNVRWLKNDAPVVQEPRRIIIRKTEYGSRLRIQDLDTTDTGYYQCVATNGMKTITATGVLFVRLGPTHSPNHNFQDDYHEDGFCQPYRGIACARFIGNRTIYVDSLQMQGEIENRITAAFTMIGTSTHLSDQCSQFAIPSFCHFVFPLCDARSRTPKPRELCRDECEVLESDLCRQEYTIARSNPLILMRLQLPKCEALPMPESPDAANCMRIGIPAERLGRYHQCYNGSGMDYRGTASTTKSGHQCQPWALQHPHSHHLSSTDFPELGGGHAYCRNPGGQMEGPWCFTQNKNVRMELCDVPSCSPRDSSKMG
hey, just use Yes if measured Affinity ELISA pH 6.0 is less than 1, otherwise No

Lab log: compare recorded Affinity ELISA pH 6.0 with 1; is it strictly lower for HC-M034E (antibody, V domains shown) VH: EVQLQQSGPELVKPGASVKISCKTSGYTFTEYTEHWMKQSHRKSLEWIGGINTNNGGTGYNQKFKGKATLTVDKSSSTAYMELRSLTSEDSAVYFCARGSLYSYGNSYFDYWGQGTLVTVSS VL: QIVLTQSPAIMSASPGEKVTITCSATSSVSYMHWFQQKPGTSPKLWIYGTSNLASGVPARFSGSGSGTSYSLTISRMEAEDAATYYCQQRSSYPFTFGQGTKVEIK ?
No

Lab log: compare recorded Affinity ELISA pH 6.0 with 1; is it strictly lower for HC-R098Q (antibody, V domains shown) VH: EVQLQQSGPELVKPGASVKISCKTSGYTFTEYTMHWMKQSHRKSLEWIGGINTNNGGTGYNQKFKGKATLTVDKSSSTAYMELRSLTSEDSAVYFCAQGSLYSYGNSYFDYWGQGTLVTVSS VL: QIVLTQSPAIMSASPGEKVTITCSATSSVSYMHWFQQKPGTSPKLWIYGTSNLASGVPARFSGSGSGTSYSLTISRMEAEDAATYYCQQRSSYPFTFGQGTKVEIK ?
Yes

Lab log: compare recorded Affinity ELISA pH 6.0 with 1; is it strictly lower for HC-I051E (antibody, V domains shown) VH: EVQLQQSGPELVKPGASVKISCKTSGYTFTEYTMHWMKQSHRKSLEWIGGENTNNGGTGYNQKFKGKATLTVDKSSSTAYMELRSLTSEDSAVYFCARGSLYSYGNSYFDYWGQGTLVTVSS VL: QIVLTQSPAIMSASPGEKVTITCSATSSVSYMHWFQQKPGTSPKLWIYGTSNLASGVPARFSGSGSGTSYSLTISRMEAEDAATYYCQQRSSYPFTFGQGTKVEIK ?
No

Lab log: compare recorded Affinity ELISA pH 6.0 with 1; is it strictly lower for HC-Y032D (antibody, V domains shown) VH: EVQLQQSGPELVKPGASVKISCKTSGYTFTEDTMHWMKQSHRKSLEWIGGINTNNGGTGYNQKFKGKATLTVDKSSSTAYMELRSLTSEDSAVYFCARGSLYSYGNSYFDYWGQGTLVTVSS VL: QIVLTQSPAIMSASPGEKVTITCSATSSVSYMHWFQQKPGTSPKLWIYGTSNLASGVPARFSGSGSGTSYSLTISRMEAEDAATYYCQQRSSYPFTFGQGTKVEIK ?
No

Lab log: compare recorded Affinity ELISA pH 6.0 with 1; is it strictly lower for HC-Y111T (antibody, V domains shown) VH: EVQLQQSGPELVKPGASVKISCKTSGYTFTEYTMHWMKQSHRKSLEWIGGINTNNGGTGYNQKFKGKATLTVDKSSSTAYMELRSLTSEDSAVYFCARGSLYSYGNSYFDTWGQGTLVTVSS VL: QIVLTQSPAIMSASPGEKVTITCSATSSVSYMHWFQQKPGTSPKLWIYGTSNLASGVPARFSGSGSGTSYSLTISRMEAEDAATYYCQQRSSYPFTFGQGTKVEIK ?
No

Lab log: compare recorded Affinity ELISA pH 6.0 with 1; is it strictly lower for HC-S103G (antibody, V domains shown) VH: EVQLQQSGPELVKPGASVKISCKTSGYTFTEYTMHWMKQSHRKSLEWIGGINTNNGGTGYNQKFKGKATLTVDKSSSTAYMELRSLTSEDSAVYFCARGSLYGYGNSYFDYWGQGTLVTVSS VL: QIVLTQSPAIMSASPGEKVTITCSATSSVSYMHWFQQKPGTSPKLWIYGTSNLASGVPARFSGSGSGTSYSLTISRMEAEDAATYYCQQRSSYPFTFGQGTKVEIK ?
Yes

Lab log: compare recorded Affinity ELISA pH 6.0 with 1; is it strictly lower for HC-T053D (antibody, V domains shown) VH: EVQLQQSGPELVKPGASVKISCKTSGYTFTEYTMHWMKQSHRKSLEWIGGINDNNGGTGYNQKFKGKATLTVDKSSSTAYMELRSLTSEDSAVYFCARGSLYSYGNSYFDYWGQGTLVTVSS VL: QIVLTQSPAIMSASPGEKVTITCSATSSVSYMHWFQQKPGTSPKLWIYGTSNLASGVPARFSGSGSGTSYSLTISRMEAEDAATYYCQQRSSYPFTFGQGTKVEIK ?
No

Lab log: compare recorded Affinity ELISA pH 6.0 with 1; is it strictly lower for HC-L101F (antibody, V domains shown) VH: EVQLQQSGPELVKPGASVKISCKTSGYTFTEYTMHWMKQSHRKSLEWIGGINTNNGGTGYNQKFKGKATLTVDKSSSTAYMELRSLTSEDSAVYFCARGSFYSYGNSYFDYWGQGTLVTVSS VL: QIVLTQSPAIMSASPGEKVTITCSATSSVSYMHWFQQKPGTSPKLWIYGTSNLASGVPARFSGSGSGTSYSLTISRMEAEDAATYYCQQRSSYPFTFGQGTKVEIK ?
No

Lab log: compare recorded Affinity ELISA pH 6.0 with 1; is it strictly lower for HC-W112L (antibody, V domains shown) VH: EVQLQQSGPELVKPGASVKISCKTSGYTFTEYTMHWMKQSHRKSLEWIGGINTNNGGTGYNQKFKGKATLTVDKSSSTAYMELRSLTSEDSAVYFCARGSLYSYGNSYFDYLGQGTLVTVSS VL: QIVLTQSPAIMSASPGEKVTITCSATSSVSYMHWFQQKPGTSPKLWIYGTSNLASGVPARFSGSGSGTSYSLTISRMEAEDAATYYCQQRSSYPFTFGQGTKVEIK ?
No
